Test: physchem
Type: physicochemical
Conditions: 0.1 hcl

Line Notation	solubility
CN(C)CCN1C(=O)c2cccc3cc(N)cc(c23)C1=O	~30 mg/mL

----------
Assay: Single dose (X1) mouse range-finding and lethality study
Assay type: in vivo, CD2 F1 mice
Details: mouse, in vivo, iv, combined sexes

Molecule	LD50 [mg/kg]
CN(C)CCN1C(=O)c2cccc3cc(N)cc(c23)C1=O [Example 9]	69.1

----------
Assay: Single dose (X1) mouse range-finding and lethality study
Assay type: in vivo, CD2 F1 mice
Conditions: mouse, in vivo, iv, male

Line Notation	LD50 / mg/kg
CN(C)CCN1C(=O)c2cccc3cc(N)cc(c23)C1=O	67.1

----------
Assay: Five daily dose (X5) mouse range-finding and lethality study
Type: in vivo, CD2 F1 mice
Settings: mouse, in vivo, iv, male

Line Notation	LD50, mg/kg
CN(C)CCN1C(=O)c2cccc3cc(N)cc(c23)C1=O	28.8
